FYI, the data here is from patent US11535630B2.

biological target: apelin receptor (APJ) (Homo sapiens); assay: In vitro apelin agonist activity (methods of Giddings et al., Apelin-13 as positive control); format: cell-based; conditions: in vitro apelin agonist activity, methods of Giddings et al., Apelin-13 as positive control; read-out: EC50 (nM) Ave
recordedEndpoint: EC50

## Task I am curious: what EC50 value has been reported for `CCN(C(=O)c1cc(-c2cccs2)n(C2CCCC2)n1)[C@@H](CCN1CCCCC1)CC(=O)NC1CCC1` ?
## Result > 10000 nM

## Task Also `COc1cccc(OC)c1-c1cc(C(=O)N[C@H](CCO)CCN2CCCCC2)nn1C1CCCC1` , if possible.
## Result > 10000 nM

Further cases:
## Task Please report the recorded EC50 for `O=C(O)C[C@H](CN1CCC(F)(F)C1)NC(=O)c1cc(-c2ccccc2C(F)(F)F)n(C2CCCC2)n1` .
## Result > 10000 nM

====

biological target: UniProt:P35414; assay: In vitro apelin agonist activity (methods of Giddings et al., Apelin-13 as positive control); type: cell-based; details: in vitro apelin agonist activity, methods of Giddings et al., Apelin-13 as positive control; read-out: EC50 (nM) Ave
recordedEndpoint: EC50

Solved cases below.
## Task Param item = `CC(C)(C)Cn1nc(C(=O)N[C@@H](CCN2CCCC(F)(F)C2)CC(=O)O)cc1-c1ccccc1C(F)(F)F` ; retrieve measured EC50.
## Result > 10000 nM

## Task Another: `COc1cccc(OC)c1-c1cc(C(=O)N[C@H](CC(=O)O)Cc2ccccc2)nn1C1CCCC1`
## Result > 10000 nM

Moving on to the next compound.
## Task Please look up its EC50: `O=C(C[C@H](CCN1CCCCC1)NC(=O)c1cc(-c2c(OCC(F)(F)F)cccc2OCC(F)(F)F)n(C2CCCC2)n1)NC1CCC1`
## Result > 10000 nM

====

The entries below are paired with their reported EC50.
molecular target: apelin receptor (APJ) (Homo sapiens); assay: In vitro apelin agonist activity (methods of Giddings et al., Apelin-13 as positive control); type: cell-based; conditions: in vitro apelin agonist activity, methods of Giddings et al., Apelin-13 as positive control; read-out: EC50 (nM) Ave
Your answer is read as nM, so omit the unit and give the number.

## Task Find the recorded EC50 belonging to `O=C(O)C[C@H](CCN1C2CCC1CC(F)(F)C2)NC(=O)c1cc(-c2ccccc2C(F)(F)F)n(C2CCCC2)n1` and report it.
## Result 346

Let's switch to this compound now.
## Task Recorded EC50 for `COc1cccc(OC)c1-c1cc(C(=O)N[C@@H](CCN2CCCCC2)CC(=O)NC2CCOCC2)nn1C1CCCC1` , please?
## Result 391

====

molecular target: apelin receptor (APJ) (Homo sapiens, UniProt P35414); assay: In vitro apelin agonist activity (methods of Giddings et al., Apelin-13 as positive control); format: cell-based; details: in vitro apelin agonist activity, methods of Giddings et al., Apelin-13 as positive control; read-out: EC50 (nM) Ave
Sequence (P35414 whole entry): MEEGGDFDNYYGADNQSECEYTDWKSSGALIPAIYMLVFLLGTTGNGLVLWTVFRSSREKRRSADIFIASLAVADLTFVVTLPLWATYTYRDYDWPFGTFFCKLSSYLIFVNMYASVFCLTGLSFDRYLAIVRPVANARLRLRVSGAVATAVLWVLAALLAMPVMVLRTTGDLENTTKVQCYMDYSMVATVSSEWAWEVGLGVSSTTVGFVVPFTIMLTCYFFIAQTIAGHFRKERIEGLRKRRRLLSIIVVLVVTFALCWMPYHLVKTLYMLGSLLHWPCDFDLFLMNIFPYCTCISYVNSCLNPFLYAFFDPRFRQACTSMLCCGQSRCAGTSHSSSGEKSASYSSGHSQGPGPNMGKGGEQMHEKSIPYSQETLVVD
Measured EC50 accompanies every entry in the list below.
Give just the numeric value; nM need not be written.

## Task Lab note: need EC50 for CC1CCC(F)(F)CN1CC[C@@H](CC(=O)O)NC(=O)c1cc(-c2ccccc2C(C)(F)F)n(C2CCCC2)n1 (stereo partly drawn) on apelin receptor (APJ) (Homo sapiens, UniProt P35414), anyone have it?
## Result 69

Further cases:
## Task Observed EC50 on apelin receptor (APJ) (Homo sapiens, UniProt P35414) for `O=C(N[C@@H](CCc1ccc(F)cc1)Cc1nnc[nH]1)c1cc(-c2ccccc2C(F)(F)F)n(C2CCCC2)n1` , please.
## Result 435

## Task Another compound to check: `O=C(C[C@H](CCN1CCCC(F)(F)C1)NC(=O)c1cc(-c2ccccc2Cl)n(C2CCCC2)n1)Nc1nccs1`
## Result 6.1

## Task `Cl.O=C(O)C[C@H](CCN1CCCC(F)(F)C1)NC(=O)c1cc(-c2ccccc2C(F)(F)F)n(C2CCCC2)n1` , same question.
## Result 35

## Task Please give the result for `COc1cccc(OC)c1-c1cc(C(=O)N[C@@H](CCN2CCCC(F)(F)C2)CC(=O)NC2CCC2)nn1C1CCCC1` too.
## Result 15

## Task Please answer likewise for `COc1cccc(OC)c1-c1cc(C(=O)N[C@@H](CCc2ccccc2)CC(=O)Nc2nccs2)nn1C1CCCC1`
## Result 94

## Task Next up: `COc1cccc(OC)c1-c1cc(C(=O)N[C@@H](CCN2CCCCC2)Cc2nnc(C)o2)nn1C1CCCC1`
## Result 1530

## Task Please answer likewise for `CC(F)(F)c1ccccc1-c1cc(C(=O)N[C@@H](CCN2CCCCC2)CC(=O)NC2CCC2)nn1C1CCCC1`
## Result 46

## Task What about this compound? `COc1cccc(OC)c1-c1cc(C(=O)N[C@@H](CCN2CCCCC2)CC(=O)NC(C)(C)C)nn1C1CCCC1`
## Result 2530

## Task Also, `O=C(C[C@H](CCN1CCC(F)(F)CC1)NC(=O)c1cc(-c2ccccc2C(F)(F)F)n(C2CCCC2)n1)NCC1CCCCC1` please.
## Result 301

## Task Repeat with `CCc1ccccc1-c1cc(C(=O)N[C@@H](CCN2CCCCC2)CC(=O)Nc2nccs2)nn1C1CCCC1`
## Result 22

====

// log10(EC50) lookup, one value per entry
target: apelin receptor (APJ) (Homo sapiens, UniProt P35414); experiment: In vitro apelin agonist activity (methods of Giddings et al., Apelin-13 as positive control); assay type: cell-based; settings: in vitro apelin agonist activity, methods of Giddings et al., Apelin-13 as positive control; read-out: EC50 (nM) Ave
Lab note - EC50 converted to log10 from values in nM.

## Task Which value of log10(EC50) has been reported for `COc1cccc(OC)c1-c1cc(C(=O)N[C@@H](CCc2ccccc2)Cc2nnn[nH]2)nn1C1CCCC1` in the records?
## Result 2.63

***
## Task Quick check: log10(EC50) of `NNC(=O)C[C@H](CCN1CCCC(F)(F)C1)NC(=O)c1cc(-c2ccccc2Cl)n(C2CCCC2)n1` ?
## Result 2.28

## Task Next record, please: `O=C(C[C@H](CCN1CCCCCC1)NC(=O)c1cc(-c2ccccc2C(F)(F)F)n(C2CCCC2)n1)NC1CCC1`
## Result 1.53

## Task // repeat for `O=C(O)C[C@@H](NC(=O)c1cc(-c2ccccc2C(F)(F)F)n(C2CCCC2)n1)C(=O)NC1CCOCC1` and report
## Result 2.78

## Task Another compound: `O=C(C[C@H](CCN1CCCC(F)(F)C1)NC(=O)c1cc(-c2ccccc2C(F)(F)F)n(C2CCCC2)n1)NS(=O)(=O)C(F)(F)F`
## Result 2.13

## Task Now this one: `CN(C(=O)C[C@H](CCN1CCOCC1)NC(=O)c1cc(-c2ccccc2C(F)(F)F)n(C2CCCC2)n1)c1nccs1`
## Result 2.22

## Task Query `CCc1ccccc1-c1cc(C(=O)N[C@@H](CCN2CCC(F)(F)CC2)CC(=O)Nc2nccs2)nn1C1CCCC1` next
## Result 1.10

====

List of EC50 values.
biological target: apelin receptor (APJ) (Homo sapiens, UniProt P35414); test: In vitro apelin agonist activity (methods of Giddings et al., Apelin-13 as positive control); assay type: cell-based; details: in vitro apelin agonist activity, methods of Giddings et al., Apelin-13 as positive control; read-out: EC50 (nM) Ave

## Task Data request, read-out EC50, for `COc1cccc(OC)c1-c1cc(C(=O)N[C@@H](Cc2ccccc2)C(=O)NC2CCC2)nn1CC(C)C`
## Result > 10000 nM

## Task What do we get for `CC(C)[C@H](NC(=O)c1cc(-c2ccccc2C(F)(F)F)n(C2CCCC2)n1)C(=O)O` ?
## Result > 10000 nM

***
## Task Item `COc1cccc(OC)c1-c1cc(C(=O)N[C@H](CC(=O)O)Cc2ccccc2)nn1CC(C)C` has what recorded EC50?
## Result > 10000 nM
